meta.source: patent US20120329721A1

Tested on: primary cortical neurons
Type: cell-based
MEASURE_NAME: Survival

Use the examples below as a reference point.
Asked: I have this compound here, CCOC(=O)[C@H]1O[C@@H]1C(=O)N[C@@H](CC(C)C)C(=O)NCCC(C)C (relative stereo) [E64d] , and I need its recorded Survival.
Given back: No

Asked: Okay, and O=c1c(-c2ccc(O)cc2)coc2cc(O)cc(O)c12 ?
Given back: No

Asked: Same again, this time with CC(=O)OCOC(=O)CN(CC(=O)OCOC(C)=O)c1ccccc1OCCOc1ccccc1N(CC(=O)OCOC(C)=O)CC(=O)OCOC(C)=O
Given back: No

Asked: Follow-up entry: CC[C@H](CO)Nc1nc(NCc2ccccc2)c2ncn(C(C)C)c2n1
Given back: No

Further cases:
Asked: Returns the measured Survival for the input compound. Input: COC(=O)CC(NC(=O)C(NC(=O)c1ccc2ccccc2n1)C(C)C)C(=O)COc1ccccc1 (centres unmarked)
Given back: Yes

----------
TESTED_TARGET: human recombinant caspase-2 (Homo sapiens)
Construct: purchased BIOMOL
Sequence (P42575 170-325 limits assumed): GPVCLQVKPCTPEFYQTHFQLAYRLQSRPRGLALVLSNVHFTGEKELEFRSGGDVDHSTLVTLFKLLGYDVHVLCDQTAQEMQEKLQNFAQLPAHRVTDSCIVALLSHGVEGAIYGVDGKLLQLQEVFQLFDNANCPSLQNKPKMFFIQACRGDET
Sequence (P42575 348-452 limits assumed): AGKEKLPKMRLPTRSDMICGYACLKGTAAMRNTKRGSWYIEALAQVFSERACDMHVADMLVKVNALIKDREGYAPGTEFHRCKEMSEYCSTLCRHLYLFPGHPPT
ASSAY_PROCEDURE: In vitro VDVAD-AMC cleavage by recombinant caspase-2
Type: biochemical
EXPERIMENTAL_CONDITIONS: inhibitor 2 μM, 50 μM VDVAD-AMC, caspase-2 125 U, 30 min at 37° C.
Residues, ends and D or L forms follow the SMILES beside them. *: point of attachment. X1 = COC(=O)C[C@H](N*)C(=O)COc1c(F)cccc1F; Quinaldoyl = O=C(c1ccc2ccccc2n1)*; Cbz = O=C(OCc1ccccc1)*; CH2F = FC*
MEASURE_NAME: inhibition of VDVAD-AMC cleavage by recombinant caspase-2

Asked: # query: inhibition of VDVAD-AMC cleavage by recombinant caspase-2 of entry COC(=O)C[C@H](NC(=O)[C@H](C)NC(=O)[C@@H](NC(=O)[C@H](CC(=O)OC)NC(=O)[C@@H](NC(=O)c1ccc2ccccc2n1)C(C)C)C(C)C)C(=O)COc1c(F)cccc1F [Q-VDVAD-OPH] (Quinaldoyl-VD(OMe)VA-X1)
Given back: blocked

Asked: Now try CC(=O)N[C@H](C(=O)N[C@@H](CC(=O)O)C(=O)N[C@H](C(=O)N[C@@H](C)C(=O)N[C@H](C=O)CC(=O)O)C(C)C)C(C)C [Ac-VDVAD-Cho] (Ac-VDVAD-aldehyde) .
Given back: blocked

Asked: Same read-out for COC(=O)CC(NC(=O)C(C)NC(=O)C(NC(=O)C(CC(=O)OC)NC(=O)C(NC(=O)OCc1ccccc1)C(C)C)C(C)C)C(=O)CF (stereo not shown) [Z-VDVAD-FMK] (Cbz-VD(OMe)VAD(OMe)-CH2F; configuration not given here) ?
Given back: blocked
